species: Rattus norvegicus; experiment: Open TG-GATES - Regimen: Daily Repeat; type: toxicity, organism-based, Sprague-Dawley; parameters: regimen Daily Repeat, gender Male, age 6 weeks; conditions: in vivo, po, 10 mg/kg, 72 h, tissue Blood, route gavage, dose level Low, time 3 day
observation-type: Fbg (mg/dL)
One number for each entry, in mg/dL.

{"compound": "CN(C)CCCN1c2ccccc2CCc2ccccc21", "unit-of-measurement": "mg/dL", "value-reported": 294}
{"compound": "CC1=C(/C=C/C(C)=C/C=C/C(C)=C/CO)C(C)(C)CCC1", "unit-of-measurement": "mg/dL", "value-reported": 311.2}
{"compound": "CC(C)OC(=O)C(C)(C)Oc1ccc(C(=O)c2ccc(Cl)cc2)cc1 [FENOFIBRATE]", "unit-of-measurement": "mg/dL", "value-reported": 269.8}

Kindly consider the entry below.
Entry CN(C)CCN(Cc1cccs1)c1ccccn1 needs its Fbg filled in; supply it.
343
